- ASSAY: NFkB reporter suppression in cystic fibrosis bronchial cells – cell-based, uHTS hits, panel, cytotoxicity readout, dose response (AID 624344)
- RUN CONDITIONS: CF bronchial epithelial cells, PAF-induced NFkB reporter inhibition; with PAF, mean of runs
Activity calls are given as the source filed them. The rule behind the calls is not given here.
Give one outcome, nothing more. List: label 1 for active, label 0 for inactive

Task: Which outcome was assigned to `C[C@H]1Cn2cnc(C(=O)Nc3cccc(Cl)c3)c2C(=O)N1` in this test?
Result: label 1

Task: Outcome logged for `COc1ccc(-c2cc(-c3nc4ccccn4c3NCc3ccccc3)ccc2OC)cc1` in this assay:
Result: label 1

Task: Per the assay record, what outcome was assigned to `Cc1ccc(C(=O)Nc2cccc(C(F)(F)F)c2)cc1NC(=O)c1ccno1` ?
Result: label 1

Task: Hey, what did the test say about `COc1ccc2cc(C(N)=O)c(=Nc3ccc(C)cc3)oc2c1` ?
Result: label 1

Task: Tell me the recorded outcome of this test for `C/C(=N/NC(=O)c1cccs1)c1ccc(NC(=O)COc2ccc(Cl)cc2)cc1` .
Result: label 0

Task: Hey, what did the test say about C=C1C(=O)OC2CC3(C)OC3CCC(C)=CC(OC(C)=O)C12 (stereo not given) ?
Result: label 1

Task: What did the test return for `CCOc1ccccc1N1CCN(C(=O)c2cc(-c3cc(OC)ccc3OC)nc3ccccc23)CC1` ?
Result: label 1

Task: Assay outcome for `Cc1cccc(CNc2ncnc3ccc(-c4ccoc4)cc23)c1` : what was it?
Result: label 1

Task: What is the recorded call for this compound in the test? `COc1cc(NC(=O)Cn2ncc(Cl)c(Cl)c2=O)c(C)cc1[N+](=O)[O-]`
Result: label 1

Task: Per the records of this test, what outcome belongs to `Cn1c(Oc2ccc(Cl)cc2)c(C=O)c2ccccc21` ?
Result: label 1
